- System: D54 ERlucT glycosylation luciferase reporter, luminescence, 24 h
- Experiment Notes: N-linked glycosylation inhibitors, luciferase reporter, dose response, D54 ERlucT cells, luminescence, cherry-picks (AID 624491);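 note: signal gain reflects blocked N-linked glycosylation of a luciferase reporter; actives raise luciferase signal so AC26 marks activators of the reporter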
The source made the active and inactive calls.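 Rule for the calls: active = fitted curve crossing a set activation limit at or below the highest valid dose tested; inconclusive = flat fit at 30 to 70% activation, or poor fit; inactive = the rest, including signal decreases.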
Could you please pick one outcome from this set? label 1 for active, label 0 for inactive

Below are worked cases with known answers.
{"Molecule": "Nc1c2ccccc2nc2ccccc12", "Group": "label 1"}
{"Molecule": "COc1cccc(C(=O)Nc2ccc(N3CCN(C(=O)c4ccco4)CC3)cc2)c1", "Group": "label 1"}

Query: Test call, this molecule: `COc1cc(/C=N\NC(=O)c2sc(N)nc2C)cc(OC)c1OC`
Reply: label 1

Query: // param item: `Cc1ccccc1NS(=O)(=O)c1ccc2c3c(cccc13)C(=O)N2C` ; yields the recorded call
Reply: label 1

Query: I would be grateful if you could indicate the recorded call for COc1cc2c(cc1OC)C(c1ccccc1)N(C(=O)c1cccc(S(C)(=O)=O)c1)CC2 (configuration not stated) .
Reply: label 1

Query: Could you kindly confirm the outcome this assay logged for `COc1ccc2c(c1)OC[C@H]1[C@H]2N2C(=O)c3ccc(F)cc3NC(=O)[C@@]2(C)[C@H]1c1ccccc1` ?
Reply: label 1

Query: Outcome logged for `O=C(Nc1ccccc1O)c1ccc(NS(=O)(=O)c2cccc3cccnc23)cc1` in this assay:
Reply: label 1

Query: Hi, do you know how `CCOc1ccc(C(=O)n2cc(C(=O)OC)c3ccccc32)cc1` came out in this test?
Reply: label 0

Query: What did this assay record as the result for `CCOC(=O)N1CCc2cc(OC)c(OC)c3c2c1cc1cc(OC)c(OC)cc13` ?
Reply: label 1

Query: Given `C=CCN=C(SCC(=O)c1ccc(Cl)cc1)c1c(O)n(C)c(=O)n(C)c1=O` , state the outcome it received in this test.
Reply: label 1
